src = patent US9234000B2

target: Human plasma kallikrein (Homo sapiens (Human)); assay: Determination of the IC50 for plasma kallikrein; assay type: biochemical; details: 37° C., substrate H-DPro-Phe-Arg-AFC, read-out: IC50 (human PKal)
Reported Metric: IC50 (nM)

Compound: CCOc1ccc(C[C@@H](NC(=O)c2ccccc2)C(=O)N[C@@H](Cc2ccc(Cl)c(Cl)c2)C(=O)NCc2ccc(CN)cc2)cc1 [Example 141]
Unit Label: nM
Data Value: 55

Compound: CCOc1ccc(C[C@@H](NC(=O)CC(F)(F)F)C(=O)N[C@@H](Cc2ccc(Cl)c(Cl)c2)C(=O)NCc2ccc(CN)cc2)cc1 [Example 172]
Unit Label: nM
Data Value: 881

Compound: CCOc1ccc(C[C@@H](NC(=O)c2ccccc2)C(=O)N[C@@H](Cc2ccncc2)C(=O)NCc2ccc(CN)cc2)cc1 [Example 147]
Unit Label: nM
Data Value: 284

Compound: CCOc1ccc(C[C@@H](NC(=O)c2cnc(Cl)c(Cl)c2)C(=O)N[C@@H](Cc2ccccc2)C(=O)NCc2ccc(CN)cc2)cc1 [Example 107]
Unit Label: nM
Data Value: 133

Compound: CCOc1ccc(C[C@@H](NC(=O)c2sccc2Cl)C(=O)N[C@@H](Cc2cccnc2)C(=O)NCc2ccc(CN)cc2)cc1 [Example 175]
Unit Label: nM
Data Value: 3

Compound: CCOc1ccc(C[C@@H](NC(=O)c2ccccc2)C(=O)N[C@@H](Cc2ccc(OC)cc2)C(=O)NCc2ccc(CN)cc2)cc1 [Example 146]
Unit Label: nM
Data Value: 232

---

target: Human plasma kallikrein (Homo sapiens (Human), UniProt P03952); test: Determination of the IC50 for plasma kallikrein; format: biochemical; settings: fluorogenic substrate H-DPro-Phe-Arg-AFC, 37° C., read-out: IC50 (human PKal)
Sequence (P03952 391-638): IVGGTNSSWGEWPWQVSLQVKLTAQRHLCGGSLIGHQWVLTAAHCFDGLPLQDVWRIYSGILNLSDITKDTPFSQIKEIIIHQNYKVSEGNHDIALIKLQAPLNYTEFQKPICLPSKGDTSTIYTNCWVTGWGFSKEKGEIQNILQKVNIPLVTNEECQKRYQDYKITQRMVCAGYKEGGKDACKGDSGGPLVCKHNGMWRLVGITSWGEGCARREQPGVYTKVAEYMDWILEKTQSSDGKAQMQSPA
Sequence (P03952 20-390 partner): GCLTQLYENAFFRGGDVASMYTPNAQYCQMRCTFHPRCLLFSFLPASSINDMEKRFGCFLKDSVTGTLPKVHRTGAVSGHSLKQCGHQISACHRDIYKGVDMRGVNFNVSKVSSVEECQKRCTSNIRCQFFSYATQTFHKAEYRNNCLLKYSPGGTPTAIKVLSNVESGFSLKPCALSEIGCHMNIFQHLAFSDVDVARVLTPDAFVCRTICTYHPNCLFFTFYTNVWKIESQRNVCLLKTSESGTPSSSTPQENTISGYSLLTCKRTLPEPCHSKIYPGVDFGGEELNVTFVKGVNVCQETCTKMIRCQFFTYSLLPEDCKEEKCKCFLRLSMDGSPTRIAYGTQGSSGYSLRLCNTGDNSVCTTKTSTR
pIC50: −log10 of the molar value.
Quick reference: pIC50 of the listed items.

Compound: NCc1ccc(CNC(=O)[C@H](Cc2ccccc2)NC(=O)[C@@H](CC2CCCCC2)NCCO)cc1
Assayed System: Human plasma kallikrein (Homo sapiens (Human), UniProt P03952)
pIC50: 6.00
//
Compound: CCCN(CCC)[C@H](CC1CCCCC1)C(=O)N[C@@H](Cc1ccccc1)C(=O)NCc1ccc(CN)cc1
Assayed System: Human plasma kallikrein (Homo sapiens (Human), UniProt P03952)
pIC50: 6.19
//
Compound: COC(=O)CN[C@H](CC1CCCCC1)C(=O)N[C@@H](Cc1ccccc1)C(=O)NCc1ccc(CN)cc1 [Example 46]
Assayed System: Human plasma kallikrein (Homo sapiens (Human), UniProt P03952)
pIC50: 5.92

---

test: physchem; conditions: pH 7
Reported Metric: solubility in PO4 buffer

Substance Smiles: CCOc1ccc(C[C@@H](NS(=O)(=O)c2ccccc2)C(=O)N[C@@H](Cc2ccccc2)C(=O)NCc2ccc(CN)cc2)cc1
Data Value: > 235 µM

Substance Smiles: CN(CC(=O)O)[C@H](CC1CCCCC1)C(=O)N[C@@H](Cc1ccccc1)C(=O)NCc1ccc(CN)cc1
Data Value: > 235 µM

Substance Smiles: CCOc1ccc(C[C@@H](NC(=O)CC)C(=O)N[C@@H](Cc2ccccc2)C(=O)NCc2ccc(CN)cc2Cl)cc1
Data Value: > 235 µM

Substance Smiles: CCOc1ccc(C[C@@H](NS(C)(=O)=O)C(=O)N[C@@H](Cc2ccccc2)C(=O)NCc2ccc(CN)cc2)cc1
Data Value: > 235 µM

Substance Smiles: CCOc1ccc(C[C@@H](NC(=O)CC)C(=O)N[C@@H](Cc2ccccc2)C(=O)NCc2ccc(CN)cc2)cc1
Data Value: > 235 µM

Substance Smiles: CN(C(=O)[C@@H](CC1CCCCC1)NCC(=O)O)[C@@H](Cc1ccccc1)C(=O)NCc1ccc(CN)cc1
Data Value: > 235 µM

Substance Smiles: NCc1ccc(CNC(=O)[C@H](Cc2ccccc2)NC(=O)[C@H](N)C(C2CCCCC2)C2CCCCC2)cc1
Data Value: > 235 µM
